Reported pIC50 values follow for various binders
molecular target: T1, rat NK1 receptor (rat, UniProt P14600 1-407); assay: competition vs [3H]substance P, membranes of rNK1-transfected CHO cells
T1 construct: whole, on cells; Assayed as membrane preparations of transfected CHO cells; also called rNK1; rNK-1
T1 sequence (P14600 whole entry): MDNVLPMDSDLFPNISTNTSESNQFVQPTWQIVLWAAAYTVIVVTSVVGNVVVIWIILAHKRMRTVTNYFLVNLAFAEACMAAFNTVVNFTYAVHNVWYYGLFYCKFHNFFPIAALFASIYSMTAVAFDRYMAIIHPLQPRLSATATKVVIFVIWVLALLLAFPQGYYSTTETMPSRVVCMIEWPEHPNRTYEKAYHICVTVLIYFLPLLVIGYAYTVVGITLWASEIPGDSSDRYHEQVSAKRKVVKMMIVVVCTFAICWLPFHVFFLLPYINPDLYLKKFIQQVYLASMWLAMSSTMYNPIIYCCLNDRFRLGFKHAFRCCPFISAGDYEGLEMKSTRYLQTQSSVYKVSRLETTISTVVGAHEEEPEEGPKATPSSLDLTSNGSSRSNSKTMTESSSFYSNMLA
pIC50: −log10 of the molar value. Square brackets hold non-standard residues; d marks the D form. * marks the point of attachment. OBzl(3,5-(CF3)2) = FC(F)(F)c1cc(CO*)cc(C(F)(F)F)c1; Met(O) = CS(=O)CC[C@H](N)C(=O)O
ENDPOINT_LABEL: pIC50

BINDER	ENDPOINT_LABEL	MEASURED
H-Y[dA]GFFPLW-{OBzl(3,5-(CF3)2)} (also: TFA salt, TFA salt; also called TY003) [H-Tyr-D-Ala-Gly-Phe-Phe-Pro-Leu-Trp-O-3,5-Bzl(CF3)2]	pIC50	7.71
H-Y[dA]GFGPLW-{OBzl(3,5-(CF3)2)} (also: TFA salt, TFA salt; also called TY006) [H-Tyr-D-Ala-Gly-Phe-Gly-Pro-Leu-Trp-O-3,5-Bzl(CF3)2]	pIC50	7.81
H-Y[dA]GF[Met(O)]PLW-{OBzl(3,5-(CF3)2)} (also: TFA salt, TFA salt; also called TY023) [H-Tyr-D-Ala-Gly-Phe-Met(O)-Pro-Leu-Trp-O-3,5-Bzl(CF3)2]	pIC50	7.26
H-Y[dA]GF[dF]PLW-{OBzl(3,5-(CF3)2)} (also: TFA salt, TFA salt; also called TY007) [H-Tyr-D-Ala-Gly-Phe-D-Phe-Pro-Leu-Trp-O-3,5-Bzl(CF3)2]	pIC50	7.18
H-Y[dA]GFMPLW-{OBzl(3,5-(CF3)2)} (also: TFA salt, TFA salt; also called TY005; TY5) [H-Tyr-D-Ala-Gly-Phe-Met-Pro-Leu-Trp-O-3,5-Bzl(CF3)2]	pIC50	8.19
H-Y[dA]GFLPLW-{OBzl(3,5-(CF3)2)} (also: TFA salt, TFA salt; also called TY004) [H-Tyr-D-Ala-Gly-Phe-Leu-Pro-Leu-Trp-O-3,5-Bzl(CF3)2]	pIC50	7.68
